Assay: in vitro
Conditions: rat, liver microsomes
quantity-kind: metabolised at 0.5 h, 5 µM (%)
Answers are plain numbers, in %.

The compound listed as O=C(Nc1cnc(-c2ccncc2F)c(-c2cccnc2)n1)C1CC1 shows metabolised at 0.5 h, 5 µM equal to 13

* * *

Experiment: in vivo
Settings: Wistar, rat, plasma, iv, 1 mg/kg
quantity-kind: AUC (ng·h/mL)
Numbers only, in ng·h/mL.

The compound listed as O=C(Nc1cnc(-c2ccncc2F)c(-c2cccnc2)n1)C1CC1 shows AUC equal to 920

* * *

Experiment: Terminal phase volume of distribution […] in cynomolgus monkey at 0.5 mg/kg, iv
Format: ADME, organism-based, Macaca fascicularis
Design: dose 0.5 mg/kg, route intravenous
Conditions: in vivo, read-out: Vbeta
quantity-kind: Vd (L/kg)
One number for each entry, in L/kg.

The compound listed as O=C(Nc1cnc(-c2ccncc2F)c(-c2cccnc2)n1)C1CC1 shows Vd equal to 0.8

* * *

Experiment: AUC in cynomolgus monkey at 0.5 mg/kg, iv
Type: ADME, organism-based, Macaca fascicularis
Set-up: dose 0.5 mg/kg, route intravenous
Details: plasma
quantity-kind: AUC
Could you give the number and then its unit, please?

The compound listed as O=C(Nc1cnc(-c2ccncc2F)c(-c2cccnc2)n1)C1CC1 shows AUC equal to 3400 ng·h/mL

* * *

Test: Tmax in BALB/c mouse at 10 mg/kg, po
Format: ADME, organism-based
Parameters: dose 10 mg/kg, route oral
Conditions: in vivo
quantity-kind: Tmax

The compound listed as O=C(Nc1cnc(-c2ccncc2F)c(-c2cccnc2)n1)C1CC1 shows Tmax equal to 15 min

* * *

Test: in vitro
Settings: human, liver microsomes
quantity-kind: metabolised at 0.5 h, 5 µM (%)
Numbers only, in %.

The molecule listed as O=C(Nc1cnc(-c2ccncc2F)c(-c2cccnc2)n1)C1CC1 [LAS101057] shows metabolised at 0.5 h, 5 µM equal to 5

* * *

Hi there, I'd appreciate the recorded Tmax for every entry that follows.
Assay: in vivo
Details: Wistar, rat, po, 10 mg/kg
Give bare numbers, in min.

Items follow; give Tmax for each.
1. CC(=O)Nc1cnc(-c2ccncc2)c(-c2ccco2)n1
2. O=C(Nc1cnc(-c2ccncc2F)c(-c2cccnc2)n1)C1CC1

(A)
1. 66
2. 15

* * *

Experiment: Oral bioavailability in cynomolgus monkey at 1 mg/kg
Format: ADME, organism-based, Macaca fascicularis
Details: in vivo
quantity-kind: bioavailability (%)
One number for each entry, in %.

The compound listed as O=C(Nc1cnc(-c2ccncc2F)c(-c2cccnc2)n1)C1CC1 shows bioavailability equal to 100

* * *

Assay: Cmax in cynomolgus monkey at 1 mg/kg, po
Assay type: ADME, organism-based, Macaca fascicularis
Parameters: dose 1 mg/kg, route oral
Settings: in vivo
quantity-kind: Cmax (ng/mL)
Answers are plain numbers, in ng/mL.

The compound listed as O=C(Nc1cnc(-c2ccncc2F)c(-c2cccnc2)n1)C1CC1 shows Cmax equal to 5900

* * *

Test: in vivo
Conditions: Wistar, rat, iv, 1 mg/kg
Hi there, I'd appreciate the recorded Vd for every entry that follows.

smiles_string=O=C(Nc1cnc(-c2ccncc2F)c(-c2cccnc2)n1)C1CC1 quantity_kind=Vd value="1.2 L/kg"

// next item, Vd requested
The molecule listed as CC(=O)Nc1cnc(-c2ccncc2)c(-c2ccco2)n1 shows Vd equal to 0.8 L/kg

* * *

Test: Terminal phase volume of distribution […] in Beagle dog at 1 mg/kg, iv
Type: ADME, organism-based, Canis lupus familiaris
Parameters: dose 1 mg/kg, route intravenous
Details: in vivo, read-out: Vbeta
quantity-kind: Vd (L/kg)
Numbers only, in L/kg.

The compound listed as O=C(Nc1cnc(-c2ccncc2F)c(-c2cccnc2)n1)C1CC1 shows Vd equal to 0.9

* * *

Assay: Cmax in Beagle dog at 1 mg/kg, po
Format: ADME, organism-based, Canis lupus familiaris
Set-up: dose 1 mg/kg, route oral
Details: in vivo
quantity-kind: Cmax (ng/mL)
Answers are plain numbers, in ng/mL.

The compound listed as O=C(Nc1cnc(-c2ccncc2F)c(-c2cccnc2)n1)C1CC1 shows Cmax equal to 820

* * *

Assay: Tmax in Beagle dog at 1 mg/kg, po
Assay type: ADME, organism-based, Canis lupus familiaris
Set-up: dose 1 mg/kg, route oral
Conditions: in vivo
quantity-kind: Tmax (h)
Numbers only, in h.

The compound listed as O=C(Nc1cnc(-c2ccncc2F)c(-c2cccnc2)n1)C1CC1 shows Tmax equal to 2

* * *

Assay: Plasma clearance in Beagle dog at 1 mg/kg, iv
Assay type: ADME, organism-based, Canis lupus familiaris
Design: dose 1 mg/kg, route intravenous
quantity-kind: clearance
Could you give the number and then its unit, please?

The compound listed as O=C(Nc1cnc(-c2ccncc2F)c(-c2cccnc2)n1)C1CC1 shows clearance equal to 1.7 mL/min/kg

* * *

Test: Oral bioavailability in Beagle dog at 1 mg/kg
Assay type: ADME, organism-based, Canis lupus familiaris
Settings: in vivo
quantity-kind: bioavailability (%)
One number for each entry, in %.

The compound listed as O=C(Nc1cnc(-c2ccncc2F)c(-c2cccnc2)n1)C1CC1 shows bioavailability equal to 98

* * *

Experiment: Volume of distribution at steady state in Beagle dog at 1 mg/kg, iv
Assay type: ADME, organism-based, Canis lupus familiaris
Parameters: dose 1 mg/kg, route intravenous
Details: in vivo, read-out: Vdss
quantity-kind: Vd (L/kg)
Give bare numbers, in L/kg.

The compound listed as O=C(Nc1cnc(-c2ccncc2F)c(-c2cccnc2)n1)C1CC1 [LAS101057] shows Vd equal to 0.8

* * *

Experiment: Plasma clearance in cynomolgus monkey at 0.5 mg/kg, iv
Type: ADME, organism-based, Macaca fascicularis
Set-up: dose 0.5 mg/kg, route intravenous
quantity-kind: clearance (mL/min/kg)
Answers are plain numbers, in mL/min/kg.

The molecule listed as O=C(Nc1cnc(-c2ccncc2F)c(-c2cccnc2)n1)C1CC1 [LAS101057] shows clearance equal to 3.4

* * *

Hi there, I'd appreciate the recorded bioavailability for every entry that follows.
Assay: in vivo
Details: Wistar, rat, po, 10 mg/kg
One number for each entry, in %.

smiles_string=CC(=O)Nc1cnc(-c2ccncc2)c(-c2ccco2)n1 value=93

// next item, bioavailability requested
The molecule listed as O=C(Nc1cnc(-c2ccncc2F)c(-c2cccnc2)n1)C1CC1 shows bioavailability equal to 100

* * *

Test: Tmax in cynomolgus monkey at 1 mg/kg, po
Assay type: ADME, organism-based, Macaca fascicularis
Parameters: dose 1 mg/kg, route oral
Conditions: in vivo
quantity-kind: Tmax (h)
Answers are plain numbers, in h.

The compound listed as O=C(Nc1cnc(-c2ccncc2F)c(-c2cccnc2)n1)C1CC1 shows Tmax equal to 3

* * *

Assay: AUC in Beagle dog at 1 mg/kg, iv
Format: ADME, organism-based, Canis lupus familiaris
Parameters: dose 1 mg/kg, route intravenous
Settings: plasma
quantity-kind: AUC (ng·h/mL)
Give bare numbers, in ng·h/mL.

The compound listed as O=C(Nc1cnc(-c2ccncc2F)c(-c2cccnc2)n1)C1CC1 shows AUC equal to 13600

* * *

Test: in vivo
Conditions: Wistar, rat, po, 10 mg/kg
quantity-kind: Cmax (ng/mL)
Give bare numbers, in ng/mL.

The compound listed as O=C(Nc1cnc(-c2ccncc2F)c(-c2cccnc2)n1)C1CC1 [LAS101057] shows Cmax equal to 7110
